These entries and their values trace back to patent US10258602B2.

Target: human growth hormone secretagogue receptor (hGHS-R1a) (Homo sapiens, UniProt Q92847)
Sequence (Q92847 whole entry): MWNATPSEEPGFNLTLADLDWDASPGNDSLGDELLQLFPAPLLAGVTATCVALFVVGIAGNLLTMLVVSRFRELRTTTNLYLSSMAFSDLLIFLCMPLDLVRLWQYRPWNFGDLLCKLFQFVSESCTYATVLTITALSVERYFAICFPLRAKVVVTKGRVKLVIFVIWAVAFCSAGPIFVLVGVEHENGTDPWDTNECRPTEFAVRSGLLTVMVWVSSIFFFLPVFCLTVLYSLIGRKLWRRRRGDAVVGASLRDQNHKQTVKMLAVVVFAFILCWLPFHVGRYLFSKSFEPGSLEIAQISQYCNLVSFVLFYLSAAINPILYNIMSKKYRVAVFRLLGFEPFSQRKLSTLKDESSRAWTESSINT
Test: Competitive radioligand binding assay (ghrelin receptor), standard method A
Settings: binding activity at the human ghrelin receptor, standard method A
pKi: −log10 of the molar value.
Assay metric: pKi

Field pKi (human growth hormone secretagogue receptor (hGHS-R1a) (Homo sapiens, UniProt Q92847)), entry C[C@@H]1CN[C@@H](C2CC2)C(=O)N(C)[C@H](C)C(=O)N[C@H](Cc2ccc(O)cc2)C(=O)N(C)CCCc2ccccc2O1 [Compound 1069] : ≥ 7.00

Field pKi (human growth hormone secretagogue receptor (hGHS-R1a) (Homo sapiens, UniProt Q92847)), entry CC(C)C[C@H]1NC(=O)[C@@H](C)N(C)C(=O)[C@H](C2CC2)NCCOc2ccccc2CC[C@@H](C)NC1=O [Compound 1086] : ≥ 7.00

Field pKi (human growth hormone secretagogue receptor (hGHS-R1a) (Homo sapiens, UniProt Q92847)), entry C[C@@H]1CN[C@@H](C2CC2)C(=O)N(C)[C@H](C)C(=O)N[C@H](Cc2ccc(Cl)cc2)C(=O)NCCCc2c(F)cccc2O1 [Compound 938] : ≥ 7.00

Field pKi (human growth hormone secretagogue receptor (hGHS-R1a) (Homo sapiens, UniProt Q92847)), entry C[C@@H]1C(=O)N[C@H](Cc2ccc(O)cc2)C(=O)NCCCc2ccc(F)cc2OCCN[C@@H](C2CC2)C(=O)N1C [Compound 809] : ≥ 7.00

Field pKi (human growth hormone secretagogue receptor (hGHS-R1a) (Homo sapiens, UniProt Q92847)), entry CC1CNC(C2CC2)C(=O)N(C)C(C)C(=O)NC(Cc2ccc(F)cc2)C(=O)NCCCC2CCCCC2O1 (mixture of isomers) [Compound 1052] : ≥ 9.00

Field pKi (human growth hormone secretagogue receptor (hGHS-R1a) (Homo sapiens, UniProt Q92847)), entry C[C@@H]1CN[C@@H](C2CC2)C(=O)N(C)[C@H](C)C(=O)N[C@H](Cc2ccc(O)cc2)C(=O)N[C@@H](C)CCc2ccccc2O1 [Compound 808] : ≥ 7.00

Field pKi (human growth hormone secretagogue receptor (hGHS-R1a) (Homo sapiens, UniProt Q92847)), entry CC1CNC(C2CC2)C(=O)N(C)C(C)C(=O)NC(CC2CCCC2)C(=O)NCCCc2ccccc2O1 (mixture of isomers) [Compound 1047] : ≥ 7.00

Field pKi (human growth hormone secretagogue receptor (hGHS-R1a) (Homo sapiens, UniProt Q92847)), entry CC1CNC(C2CC2)C(=O)N(C)C(C)C(=O)NC(Cc2ccc(O)c(F)c2)C(=O)NCCCC2CCCCC2O1 (mixture of isomers) [Compound 832] : ≥ 9.00

Field pKi (human growth hormone secretagogue receptor (hGHS-R1a) (Homo sapiens, UniProt Q92847)), entry C[C@@H]1CN[C@@H](C2CC2)C(=O)N(C)[C@H](C)C(=O)N[C@H]([C@@H](C)c2ccc(F)cc2)C(=O)NCCCc2ccccc2O1 [Compound 1034] : ≥ 7.00

Field pKi (human growth hormone secretagogue receptor (hGHS-R1a) (Homo sapiens, UniProt Q92847)), entry C[C@@H]1C(=O)N[C@H](Cc2ccc(O)cc2)C(=O)NCCCc2cccc3c2O[C@H](CC3)CN[C@@H](C2CC2)C(=O)N1C [Compound 803] : ≥ 7.00

Field pKi (human growth hormone secretagogue receptor (hGHS-R1a) (Homo sapiens, UniProt Q92847)), entry C[C@@H]1C(=O)N[C@H](Cc2ccc(F)cc2)C(=O)NCCCc2cccc3c2O[C@H](CC3)CN[C@@H](C2CC2)C(=O)N1C [Compound 1009] : ≥ 9.00

Field pKi (human growth hormone secretagogue receptor (hGHS-R1a) (Homo sapiens, UniProt Q92847)), entry C[C@@H]1CN[C@@H](C2CC2)C(=O)N(C)[C@H](C)C(=O)N[C@H](Cc2ccc(O)cc2)C(=O)NCCCc2cccc(F)c2O1 [Compound 991] : ≥ 7.00

Field pKi (human growth hormone secretagogue receptor (hGHS-R1a) (Homo sapiens, UniProt Q92847)), entry COc1ccc(C[C@H]2NC(=O)[C@@H](C)N(C)C(=O)[C@H](C3CC3)NC[C@@H](C)Oc3ccccc3CCCNC2=O)cc1 [Compound 867] : ≥ 7.00

Field pKi (human growth hormone secretagogue receptor (hGHS-R1a) (Homo sapiens, UniProt Q92847)), entry C[C@@H]1CN[C@@H](C2CC2)C(=O)N(C)[C@H](C)C(=O)N[C@H]([C@H](C)c2ccc(F)cc2)C(=O)NCCCc2ccccc2O1 [Compound 1018] : ≥ 7.00

Field pKi (human growth hormone secretagogue receptor (hGHS-R1a) (Homo sapiens, UniProt Q92847)), entry C[C@@H]1CN[C@@H](C2CC2)C(=O)N(C)[C@H](C)C(=O)N[C@H](C2CCCCC2)C(=O)NCCCc2ccccc2O1 [Compound 1046] : ≥ 7.00

Field pKi (human growth hormone secretagogue receptor (hGHS-R1a) (Homo sapiens, UniProt Q92847)), entry CC(C)[C@@H]1NC[C@H](C)Oc2ccccc2CCCNC(=O)[C@@H](Cc2ccccc2)NC(=O)[C@@H](C)N(C)C1=O [Compound 870] : ≥ 6.30

Field pKi (human growth hormone secretagogue receptor (hGHS-R1a) (Homo sapiens, UniProt Q92847)), entry C[C@@H]1C(=O)N[C@H](Cc2ccc(O)cc2)C(=O)NCCCc2cccc3c2OC(CN[C@@H](C2CC2)C(=O)N1C)C3 (stereo partly shown) [Compound 1025] : ≥ 6.30

Field pKi (human growth hormone secretagogue receptor (hGHS-R1a) (Homo sapiens, UniProt Q92847)), entry CC(C)CC1NC(=O)C(C)N(C)C(=O)C(C2CC2)NCCOC2CCCCC2CCCNC1=O (stereo not shown) [Compound 1106] : ≥ 7.00

Field pKi (human growth hormone secretagogue receptor (hGHS-R1a) (Homo sapiens, UniProt Q92847)), entry CC(=O)Oc1ccc(CC2NC(=O)C(C)N(C)C(=O)C(C3CC3)NCC(C)Oc3ccccc3CCCNC2=O)cc1F (mixture of isomers) [Compound 1065] : ≥ 7.00

Field pKi (human growth hormone secretagogue receptor (hGHS-R1a) (Homo sapiens, UniProt Q92847)), entry C[C@@H]1CN[C@@H](C2CC2)C(=O)N(C)[C@H](C)C(=O)N[C@H](Cc2ccc(F)cc2)C(=O)NCCCc2c(F)cccc2O1 [Compound 937] : ≥ 6.30

Field pKi (human growth hormone secretagogue receptor (hGHS-R1a) (Homo sapiens, UniProt Q92847)), entry CC1CNC(C2CC2)C(=O)N(C)C(C)C(=O)NC(CC(C)(C)C)C(=O)NCCCc2ccccc2O1 (stereo not shown) [Compound 1043] : ≥ 7.00

Field pKi (human growth hormone secretagogue receptor (hGHS-R1a) (Homo sapiens, UniProt Q92847)), entry CC[C@H](C)[C@@H]1NCCOc2cnccc2CCCNC(=O)[C@@H](CC(C)C)NC(=O)[C@@H](C)N(C)C1=O [Compound 1022] : ≥ 6.30

Field pKi (human growth hormone secretagogue receptor (hGHS-R1a) (Homo sapiens, UniProt Q92847)), entry C[C@@H]1C(=O)N[C@H](Cc2ccccc2Cl)C(=O)NCCCc2ccccc2OCCN[C@@H](C2CC2)C(=O)N1C [Compound 872] : ≥ 8.00

Field pKi (human growth hormone secretagogue receptor (hGHS-R1a) (Homo sapiens, UniProt Q92847)), entry CC(C)C[C@H]1NC(=O)[C@@H](C)N(C)C(=O)[C@H](C2CCCCC2)NC[C@@H](C)Oc2ccccc2CCCNC1=O [Compound 1099] : ≥ 9.00

Field pKi (human growth hormone secretagogue receptor (hGHS-R1a) (Homo sapiens, UniProt Q92847)), entry CC(C)C[C@H]1NC(=O)[C@@H](C)N(C)C(=O)[C@H](C2CC2)NCCOc2cc(F)ccc2CC[C@H](C)NC1=O [Compound 822] : ≥ 7.00

----------
Would you mind telling me the reported pKi of each entry?
Molecular target: human growth hormone secretagogue receptor (hGHS-R1a) (Homo sapiens, UniProt Q92847)
Assay: Competitive radioligand binding assay (ghrelin receptor), standard method A
Settings: binding activity at the human ghrelin receptor, standard method A
pKi: −log10 of the molar value.

Looking up CC1CNC(C2CC2)C(=O)N(C)C(C)C(=O)NC(Cc2ccc(O)c(F)c2)C(=O)NCCCc2ccccc2O1 (mixture of isomers) , I found its pKi recorded as ≥ 7.00

Looking up C[C@@H]1CN[C@@H](C2CC2)C(=O)N(C)[C@H](C)C(=O)N[C@H](Cc2ccc(O)cc2)C(=O)NCCCc2ncccc2O1 , I found its pKi recorded as ≥ 7.00

Looking up C[C@@H]1CN[C@@H](C2CC2)C(=O)N(C)[C@H](C)C(=O)N[C@H](Cc2ccccc2)C(=O)NCCCc2ncccc2O1 , I found its pKi recorded as ≥ 7.00

Looking up CC[C@H](C)[C@@H]1NCCOc2cccnc2CCCNC(=O)[C@@H](CC(C)C)NC(=O)[C@@H](C)N(C)C1=O , I found its pKi recorded as ≥ 6.30

Looking up C[C@@H]1CN[C@@H](C2CC2)C(=O)N(C)[C@H](C)C(=O)N[C@H](Cc2ccc(F)cc2)C(=O)NCCCc2cccc(Cl)c2O1 , I found its pKi recorded as ≥ 7.00

Looking up CC(C)[C@@H](O)[C@H]1NC(=O)[C@@H](C)N(C)C(=O)[C@H](C2CC2)NC[C@@H](C)Oc2ccccc2CCCNC1=O , I found its pKi recorded as ≥ 7.00

Looking up CC(C)C[C@H]1NC(=O)[C@@H](C)N(C)C(=O)[C@H](C2CC2)NCCOc2cccnc2CCCNC1=O , I found its pKi recorded as < 6.30

Looking up CC1CNC(C2CC2)C(=O)N(C)C(C)C(=O)NC(Cc2ccccc2O)C(=O)NCCCc2ccccc2O1 (mixture of isomers) , I found its pKi recorded as ≥ 6.30

Looking up CC[C@H](C)[C@@H]1NC[C@@H](C)Oc2c(F)cccc2CCCNC(=O)[C@@H](CC(C)C)NC(=O)[C@@H](C)N(C)C1=O , I found its pKi recorded as ≥ 8.00

Looking up C[C@@H]1CN[C@@H](C2CC2)C(=O)N(C)[C@H](C)C(=O)N[C@H](Cc2ccc(F)cc2)C(=O)NCCCc2cc(F)c(F)cc2O1 , I found its pKi recorded as ≥ 6.30

Looking up C[C@@H]1CN[C@@H](C2CC2)C(=O)N(C)[C@H](C)C(=O)N[C@H](C(C)(C)c2ccc(F)cc2)C(=O)NCCCc2ccccc2O1 , I found its pKi recorded as ≥ 7.00

Looking up CC(C)C[C@H]1NC(=O)[C@@H](C)N(C)C(=O)[C@H](C2CC2)NCCOc2cnccc2CCCNC1=O , I found its pKi recorded as < 6.30

Looking up C[C@@H]1CN[C@@H](C2CC2)C(=O)N(C)[C@H](C)C(=O)N[C@H](Cc2ccc(C(F)(F)F)cc2)C(=O)NCCCc2ccccc2O1 , I found its pKi recorded as ≥ 7.00

Looking up CO[C@H](C)[C@@H]1NC[C@@H](C)Oc2cccnc2CCCNC(=O)[C@@H](Cc2ccc(F)cc2)NC(=O)[C@@H](C)N(C)C1=O , I found its pKi recorded as ≥ 6.30

Looking up CC(C)C[C@H]1NC(=O)[C@@H](C)N(C)C(=O)[C@H](C2CC2)NCCOc2cc(F)ccc2CCCNC1=O , I found its pKi recorded as ≥ 7.00

Looking up CC1CNC(C2CC2)C(=O)N(C)C(C)C(=O)NC(Cc2ccc(O)cc2)C(=O)NCCCC2CCCCC2O1 (mixture of isomers) , I found its pKi recorded as ≥ 7.00

Looking up C[C@@H]1C(=O)N[C@H]([C@@H](C)c2ccc(O)cc2)C(=O)NCCCc2ncccc2OCCN[C@@H](C2CC2)C(=O)N1C , I found its pKi recorded as ≥ 7.00

Looking up C[C@@H]1CN[C@@H](C2CC2)C(=O)N(C)[C@H](C)C(=O)N[C@H](C2CC2)C(=O)NCCCc2ccccc2O1 , I found its pKi recorded as < 6.30

Looking up C[C@@H]1C(=O)N[C@H]([C@@H](C)c2ccc(O)cc2)C(=O)NCCCc2nccc3c2O[C@H](CC3)CN[C@@H](C2CC2)C(=O)N1C , I found its pKi recorded as ≥ 7.00

Looking up C[C@@H]1CN[C@@H](C2CC2)C(=O)N(C)[C@H](C)C(=O)N[C@H](Cc2cc(Br)c(O)c(Br)c2)C(=O)NCCCc2ccccc2O1 , I found its pKi recorded as ≥ 7.00

Looking up CC[C@H](C)[C@@H]1NCCOc2ccccc2CCCNC(=O)[C@@H](Cc2ccccc2)NC(=O)[C@@H](CF)N(C)C1=O , I found its pKi recorded as ≥ 6.30

Looking up CCC[C@@H]1NC[C@@H](C)Oc2ccccc2CCCNC(=O)[C@@H](Cc2ccc(Cl)cc2)NC(=O)[C@@H](C)N(C)C1=O , I found its pKi recorded as ≥ 7.00

Looking up C[C@@H]1CN[C@@H](C2CC2)C(=O)N(C)[C@H](C)C(=O)N[C@H](Cc2ccccc2)C(=O)NCCCc2ccc(F)cc2O1 , I found its pKi recorded as ≥ 7.00

Looking up C[C@@H]1CN[C@@H](C2CC2)C(=O)N(C)[C@H](C)C(=O)N[C@H](Cc2ccc(Cl)cc2Cl)C(=O)NCCCc2ccccc2O1 , I found its pKi recorded as ≥ 7.00

Looking up C[C@@H]1C(=O)N[C@H](Cc2ccccc2)C(=O)NCCCc2ccncc2OCCN[C@@H](C2CC2)C(=O)N1C , I found its pKi recorded as ≥ 7.00
